Target: Replicative DNA helicase (Bacillus anthracis, UniProt A0A6L8Q2B7)
Sequence (A0A6L8Q2B7 whole entry): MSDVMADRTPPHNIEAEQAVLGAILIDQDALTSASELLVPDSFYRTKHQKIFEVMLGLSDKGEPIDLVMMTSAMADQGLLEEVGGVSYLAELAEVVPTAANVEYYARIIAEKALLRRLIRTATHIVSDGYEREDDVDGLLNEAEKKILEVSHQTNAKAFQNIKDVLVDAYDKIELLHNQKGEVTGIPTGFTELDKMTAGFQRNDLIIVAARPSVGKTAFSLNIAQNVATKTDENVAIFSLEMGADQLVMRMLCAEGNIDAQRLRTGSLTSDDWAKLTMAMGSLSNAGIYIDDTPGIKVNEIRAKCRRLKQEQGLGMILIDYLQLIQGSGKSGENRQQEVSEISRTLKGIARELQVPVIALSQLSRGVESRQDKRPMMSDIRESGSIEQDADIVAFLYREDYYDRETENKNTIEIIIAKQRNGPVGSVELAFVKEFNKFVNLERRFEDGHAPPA
So basically: is IC50 under 9 µM? Then Criterion met. Not under? Then Criterion not met.

>  <STRUCTURE_NOTATION>
Cc1c(CCC(=O)O)c(=O)oc2c(C)c(OCc3ccccc3)ccc12

>  <GROUP_LABEL>
Criterion not met

$$$$
>  <STRUCTURE_NOTATION>
Cc1c(CCC(=O)O)c(=O)oc2c(C)c(OCc3ccc4ccc(Cl)cc4n3)ccc12

>  <GROUP_LABEL>
Criterion not met

$$$$
>  <STRUCTURE_NOTATION>
Cc1c(CCC(=O)O)c(=O)oc2c(C)c(OCc3c4ccccc4cc4ccccc34)ccc12

>  <GROUP_LABEL>
Criterion met

$$$$
>  <STRUCTURE_NOTATION>
Cc1c(CCC(=O)O)c(=O)oc2cc(OCc3cccc(-c4ccccc4)c3)ccc12

>  <GROUP_LABEL>
Criterion not met

$$$$
>  <STRUCTURE_NOTATION>
Cc1c(CCC(=O)O)c(=O)oc2c(C)c(OCc3ccc(-c4ccccc4C#N)cc3)ccc12

>  <GROUP_LABEL>
Criterion met

$$$$
>  <STRUCTURE_NOTATION>
Cc1c(CCC(=O)O)c(=O)oc2c(C)c(OCc3ccncc3)ccc12

>  <GROUP_LABEL>
Criterion not met

$$$$
>  <STRUCTURE_NOTATION>
CNC(=O)CCc1c(C)c2ccc(OCc3ccc(-c4ccc(Cl)cc4)cc3)c(C)c2oc1=O

>  <GROUP_LABEL>
Criterion not met

$$$$
>  <STRUCTURE_NOTATION>
CCc1c(OCc2ccc(-c3ccccc3)cc2)ccc2c(C)c(CCC(=O)O)c(=O)oc12

>  <GROUP_LABEL>
Criterion met

$$$$

Hello, I'm reviewing records and need to know if IC50 of `Cc1c(CCC(=O)O)c(=O)oc2cc(OCc3ccc4ccc(Cl)cc4n3)ccc12` is below 9 µM. Could you check? Criterion not met

State whether 9 µM exceeds IC50 recorded for `Cc1c(CCC(=O)O)c(=O)oc2c(C)c(OCc3ccc(-c4ccc(F)cc4)cc3)ccc12` . Criterion met

Report whether reported IC50 is lower than 9 µM (strictly) for `Cc1c(CCC(=O)O)c(=O)oc2c(C)c(OCc3cccc(-c4ccccc4)c3)ccc12` Criterion met

Could you please tell me whether IC50 recorded for `Cc1c(OCc2ccc(-c3ccccc3)cc2)ccc2cc(CCC(=O)O)c(=O)oc12` is less than 9 µM? Criterion not met

# strict comparison: is reported IC50 < 9 µM? input = `Cc1c(CCC(=O)O)c(=O)oc2c(C)c(OCc3ccc(-c4ccc(Cl)cc4)cc3)ccc12` Criterion met

---

Tested on: Bacillus anthracis
Assay: Antibacterial activity against Bacillus anthracis by broth microdilution method
Assay type: functional
Measured MIC accompanies every entry in the list below.
Report the value in µM with no unit label.

>  <STRUCTURE_NOTATION>
Cc1c(CCC(=O)O)c(=O)oc2c(C)c(OCc3ccc4ccccc4c3)ccc12

>  <MEASURE>
MIC

>  <VALUE_OBSERVED>
5

$$$$

Respond only with MIC recorded for `CCc1c(OCc2ccc(-c3ccccc3)cc2)ccc2c(C)c(CCCC(=O)O)c(=O)oc12` 2.5

Retrieve MIC measured for `Cc1c(CCC(=O)O)c(=O)oc2cc(OCc3cccc(-c4ccccc4)c3)ccc12` and print it. 2.5

Please report the measured MIC for `Cc1c(CCC(=O)O)c(=O)oc2c(C)c(OCc3ccccc3-c3ccccc3)ccc12` 2.5

Specify measured MIC for `Cc1c(CCC(=O)O)c(=O)oc2c(C)c(OCc3cccc4ccccc34)ccc12` . 65

Kindly indicate its recorded MIC. Item: `Cc1c(CCC(=O)NCCN(C)C)c(=O)oc2c(C)c(OCc3ccc(-c4ccccc4)cc3)ccc12` 2.5

Provide only the value of recorded MIC for `Cc1c(CC(=O)O)c(=O)oc2c(C)c(OCc3ccc(-c4ccccc4)cc3)ccc12` 2.5

Specify measured MIC for `Cc1c(CCC(=O)O)c(=O)oc2c(C)c(OCc3ccc(-c4ccc(Cl)c(Cl)c4)cc3)ccc12` . 3

Tell me measured MIC for `Cc1c(CCC(=O)O)c(=O)oc2c(C)c(OCc3c4ccccc4cc4ccccc34)ccc12` please. 2.5
